methodDescription: Cytotoxicity against African green monkey Vero E6 cells assessed as cell growth inhibition measured after 48 hrs by CCK-8 assay
Type: toxicity, cell-based, Vero C1008
studyConditions: chlorocebus sabaeus

| compound | CC50 at 48 h |
| --- | --- |
| NC(=O)c1ncn([C@@H]2O[C@H](CO)[C@@H](O)[C@H]2O)n1 [RIBAVIRIN] | > 400 µM |

###

Tested on: SARS-CoV-2
methodDescription: Antiviral activity against SARS-COV-2 infected in African green monkey Vero E6 cells
Format: functional, organism-based
studyConditions: Severe acute respiratory syndrome coronavirus 2, Vero C1008

| compound | EC50 |
| --- | --- |
| COC(=O)C[C@](O)(CCCC(C)(C)O)C(=O)O[C@@H]1C(OC)=C[C@]23CCCN2CCc2cc4c(cc2[C@H]13)OCO4 [OMACETAXINE MEPESUCCINATE] | 2100 nM |

###

Test system: SARS-CoV-2
methodDescription: Antiviral activity against SARS-COV-2 Australia/VIC01/2020 infected in African green monkey Vero cells by RT-PCR assay
Type: functional, organism-based, Severe acute respiratory syndrome coronavirus 2

| sequenceInput | IC50, nM |
| --- | --- |
| IVERMECTIN | 2000 |

###

Tested on: Peritoneal macrophage
methodDescription: Anti-inflammatory activity against mouse peritoneal macrophages assessed as reduction in LPS induced IL-6 level by ELISA analysis
Type: functional, cell-based

| compound | IC50 / µM |
| --- | --- |
| CC(=O)Oc1ccccc1C(=O)Nc1ncc([N+](=O)[O-])s1 [NITAZOXANIDE] | 2000 |
